Values from paper PMC7277793

# TARGET_OR_SYSTEM: UniProt Q96L34
# Sequence (Q96L34 whole entry): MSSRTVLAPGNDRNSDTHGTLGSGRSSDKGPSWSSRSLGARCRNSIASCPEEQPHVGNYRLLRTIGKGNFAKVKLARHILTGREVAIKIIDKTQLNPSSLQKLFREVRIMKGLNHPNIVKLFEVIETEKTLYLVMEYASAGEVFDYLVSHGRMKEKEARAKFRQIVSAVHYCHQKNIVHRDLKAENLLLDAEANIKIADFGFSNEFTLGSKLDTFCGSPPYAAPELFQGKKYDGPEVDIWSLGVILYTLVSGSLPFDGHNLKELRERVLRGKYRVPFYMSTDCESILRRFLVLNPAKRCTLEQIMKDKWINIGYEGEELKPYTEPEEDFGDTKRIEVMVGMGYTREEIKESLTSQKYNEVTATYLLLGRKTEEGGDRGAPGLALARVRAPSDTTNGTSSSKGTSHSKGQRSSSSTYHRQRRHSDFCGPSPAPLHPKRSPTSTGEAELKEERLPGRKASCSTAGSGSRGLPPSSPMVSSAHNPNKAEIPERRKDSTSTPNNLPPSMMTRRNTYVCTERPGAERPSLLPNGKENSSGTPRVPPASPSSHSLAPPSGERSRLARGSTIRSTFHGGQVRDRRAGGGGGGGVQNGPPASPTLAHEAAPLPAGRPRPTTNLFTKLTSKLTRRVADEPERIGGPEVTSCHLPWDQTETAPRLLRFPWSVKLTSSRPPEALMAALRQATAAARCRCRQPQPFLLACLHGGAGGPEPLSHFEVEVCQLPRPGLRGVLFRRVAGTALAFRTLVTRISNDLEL
Structures can show the parent of a compound that is named as a salt.

# COMPOUND, VALUE_UNIT, IC50
records = [
    ("CCN(C)C(=O)Oc1cccc([C@H](C)N(C)C)c1 [RT, rivastigmine tartrate]", "µM", 6.74),
]
